Kindly state log10 IC50 for each of the entries shown.
measurementTarget: human TLR2 (Pam2CSK4, TLR2/6 agonist) in HEK-Blue hTLR2 cells (Homo sapiens)
Construct: host or cells: HEK-Blue hTLR2 (HEK-293)
Sequence (O60603 19-784 limits assumed): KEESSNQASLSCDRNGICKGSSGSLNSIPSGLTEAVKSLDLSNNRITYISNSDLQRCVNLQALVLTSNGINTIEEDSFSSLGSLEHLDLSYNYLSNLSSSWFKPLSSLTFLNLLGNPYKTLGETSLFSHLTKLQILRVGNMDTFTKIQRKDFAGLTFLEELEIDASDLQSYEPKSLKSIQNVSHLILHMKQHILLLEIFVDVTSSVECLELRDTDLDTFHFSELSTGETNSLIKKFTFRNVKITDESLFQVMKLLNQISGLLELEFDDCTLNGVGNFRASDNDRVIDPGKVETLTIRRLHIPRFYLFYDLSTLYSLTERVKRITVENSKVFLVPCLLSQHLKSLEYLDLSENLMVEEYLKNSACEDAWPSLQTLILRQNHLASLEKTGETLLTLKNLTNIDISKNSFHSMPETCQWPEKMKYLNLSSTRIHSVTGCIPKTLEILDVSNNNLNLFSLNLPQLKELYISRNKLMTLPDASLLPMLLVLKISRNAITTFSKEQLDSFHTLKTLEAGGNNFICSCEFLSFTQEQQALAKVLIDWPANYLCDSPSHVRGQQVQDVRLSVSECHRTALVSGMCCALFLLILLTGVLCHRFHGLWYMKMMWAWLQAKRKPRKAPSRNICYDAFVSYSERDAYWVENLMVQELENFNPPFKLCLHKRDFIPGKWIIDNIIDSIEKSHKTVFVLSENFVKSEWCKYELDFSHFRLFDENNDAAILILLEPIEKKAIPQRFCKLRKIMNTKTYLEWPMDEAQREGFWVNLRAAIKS
assayDetails: HEK-Blue hTLR2 antagonism assay (SEAP reporter) with Pam2CSK4 as agonist
Assay type: cell-based
condition: 2 h compound pre-incubation, approx. 3×EC50 Pam2CSK4, 18 h, SEAP OD 655 nm, background subtracted
Scale type: logarithmic (base 10). Underlying IC50 unit: µM.

The following compounds have reported results that may help.
compound	measurementTarget	log10 IC50
COc1cc(/C=C/C2CCN(C(=O)OC(C)(C)C)CC2)cc(C=O)c1O [compound 27]	human TLR2 (Pam2CSK4, TLR2/6 agonist) in HEK-Blue hTLR2 cells (Homo sapiens)	0.64
COc1cc(C=Cc2ccc(Cl)cc2)cc(C=O)c1O [compound 3]	human TLR2 (Pam2CSK4, TLR2/6 agonist) in HEK-Blue hTLR2 cells (Homo sapiens)	0.68
CCN(CC)c1ccc(/C=C/c2cc(F)c(O)c(C=O)c2)cc1 [compound 64]	human TLR2 (Pam2CSK4, TLR2/6 agonist) in HEK-Blue hTLR2 cells (Homo sapiens)	0.04
COc1cc(/C=C/c2cccc(C(F)(F)F)c2)cc(C=O)c1O [compound 2]	human TLR2 (Pam2CSK4, TLR2/6 agonist) in HEK-Blue hTLR2 cells (Homo sapiens)	0.72
O=Cc1cc(/C=C/c2ccc3ncccc3c2)cc(F)c1O [compound 59]	human TLR2 (Pam2CSK4, TLR2/6 agonist) in HEK-Blue hTLR2 cells (Homo sapiens)	0.61
COc1cc(-c2cc3c(s2)CCN(CC2CC2)C3)cc(C=O)c1O [compound 17]	human TLR2 (Pam2CSK4, TLR2/6 agonist) in HEK-Blue hTLR2 cells (Homo sapiens)	0.30
COc1ccc(/C=C/c2cc(F)c(O)c(C=O)c2)cc1 [compound 10]	human TLR2 (Pam2CSK4, TLR2/6 agonist) in HEK-Blue hTLR2 cells (Homo sapiens)	0.66
CC(C)(C)OC(=O)N1CCC(/C=C/c2cc(F)c(O)c(C=O)c2)CC1 [compound 31]	human TLR2 (Pam2CSK4, TLR2/6 agonist) in HEK-Blue hTLR2 cells (Homo sapiens)	0.58

For each of the compounds below, state log10 IC50.
1. CN1CCCc2cc(/C=C/c3cc(F)c(O)c(C=O)c3)ccc21 [compound 62]
2. COc1cc(/C=C/c2ccccc2)cc(C=O)c1O [compound 4]
3. Oc1c(F)cc(/C=C/c2ccc(N3CCCC3)cc2)cc1/C=N/c1ccccc1 [compound 78]
4. O=Cc1cc(/C=C/c2ccc(OCC3CC3)cc2)cc(F)c1O [compound 66]
5. O=Cc1cc(/C=C/c2cccc(N3CCCC3)c2)cc(F)c1O [compound 47]
6. COc1cc(-c2cc3c(s2)CCN(C(C)C)C3)cc(C=O)c1O [compound 20]

Data returned:
1. 0.18
2. 0.74
3. 0.00
4. -0.05
5. 0.11
6. 1.05

For each of the compounds below, state log10 IC50.
1. COc1cc(/C=C/c2ccncc2)cc(C=O)c1O [compound 25]
2. Cc1ccc(/C=C/c2cc(F)c(O)c(C=O)c2)cn1 [compound 29]
3. Oc1c(F)cc(/C=C/c2ccc(N3CCCC3)cc2)cc1/C=N/Nc1ccccc1 [compound 79]
4. COc1cc(/C=C/C(=O)c2ccccc2)cc(C(=O)/C=C/c2ccccc2)c1O [compound 84]
5. COc1cc(/C=C/c2ccc(-c3ccccc3)cc2)cc(C=O)c1O [compound 36]
6. OCc1cc(/C=C/c2ccc(N3CCCC3)cc2)cc(F)c1O [compound 90]

Data returned:
1.18
0.96
0.64
0.53
-0.22
0.73

For each of the compounds below, state log10 IC50.
1. N=C(N)N/N=C/c1cc(/C=C/c2ccc(N3CCCC3)cc2)cc(F)c1O [compound 83]
2. CN1CCc2sc(-c3cc(F)c(O)c(C=O)c3)cc2C1 [compound 18]
3. COc1cc(/C=C/c2ccc3ccccc3c2)cc(C=O)c1O [compound 32]

Data returned:
1: 1.56; 2: 1.02; 3: 0.04
